# subject.of.test: T1, hiR2-FL-G587A-T7 (human, UniProt Q6PJF5 1-856)
# T1 sequence: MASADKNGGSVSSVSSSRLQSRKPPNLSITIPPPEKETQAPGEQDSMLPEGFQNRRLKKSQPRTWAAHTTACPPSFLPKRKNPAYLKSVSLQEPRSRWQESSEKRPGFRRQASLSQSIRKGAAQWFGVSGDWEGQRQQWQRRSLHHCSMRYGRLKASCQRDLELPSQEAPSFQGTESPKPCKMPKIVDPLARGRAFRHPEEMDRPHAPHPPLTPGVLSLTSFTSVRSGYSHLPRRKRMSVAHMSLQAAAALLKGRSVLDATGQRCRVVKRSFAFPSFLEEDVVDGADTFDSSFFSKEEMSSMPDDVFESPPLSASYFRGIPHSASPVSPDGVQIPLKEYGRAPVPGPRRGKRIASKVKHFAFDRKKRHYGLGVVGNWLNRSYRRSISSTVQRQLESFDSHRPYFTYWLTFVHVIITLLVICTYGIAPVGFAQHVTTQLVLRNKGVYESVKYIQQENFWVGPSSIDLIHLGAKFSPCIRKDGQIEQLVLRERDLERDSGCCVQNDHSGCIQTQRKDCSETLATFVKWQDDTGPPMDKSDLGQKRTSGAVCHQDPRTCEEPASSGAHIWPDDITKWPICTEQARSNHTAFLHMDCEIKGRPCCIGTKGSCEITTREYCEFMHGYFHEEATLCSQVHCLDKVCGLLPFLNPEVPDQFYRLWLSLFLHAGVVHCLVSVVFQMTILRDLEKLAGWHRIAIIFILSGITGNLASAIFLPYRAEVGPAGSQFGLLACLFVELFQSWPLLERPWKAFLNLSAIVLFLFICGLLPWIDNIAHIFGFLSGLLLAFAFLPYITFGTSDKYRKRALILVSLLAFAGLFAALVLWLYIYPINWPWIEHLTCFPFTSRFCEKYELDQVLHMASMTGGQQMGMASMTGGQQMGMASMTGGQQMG
# method.notes: FACS on MEF-DKO cells expressing the variant, 3 µg/ml antibody
I'd be grateful if you could share measured loss of binding vs wild type for these entries.

Name the reported loss of binding vs wild type value associated with the binder antibody 44 (antibody, V domains shown, mouse IgG, kappa light chain; also called clone #44; purified antibody 44) VH: QVTLKESGPGILQPSQTLSLTCSFSGFSLSTFGMGVGWIRQPSEKGLEWLAHIWWDDDKYYNPALKSRLTISKDTSKNQIFLKITNVDTAETATYYCSRIGNYGSNYWYFDVWGTGTTVTVSS VL: QIVLTQSPAVMSASPGEKVTMTCTASSSVYYMYWYQQTPGSSPRLLIYDTSNLASGVPVRFSGSGSGTSYSLTISRMEAEDAATYYCQQWNTYPLTFGAGTKLELK ≥ 30%

Name the reported loss of binding vs wild type value associated with the binder antibody 50 (antibody, V domains shown, mouse IgG, kappa light chain; also called clone #50; purified antibody 50) VH: QVQLQQSGAELVRPGASVKVSCKASGYAFSNYLIEWVKQRPGQGLEWIGVINPGSGFTKYNEKFKGKATLTADKSSSTAYMQLSSLTSEDSAVYFCARGLYRAMDYWGQGTSVTVSS VL: DIQMTQSPASQSASLGESVTITCLASQTIGTWLAWYQQKPGKSPQLLIYAAASLADGVPSRFSGGGSGTKFSFKISSLQAEDFVNYYCQQIYSTPYTFGGGTKLEIK ≥ 60%

Name the reported loss of binding vs wild type value associated with the binder antibody 43 (antibody, V domains shown, mouse IgG, kappa light chain; also called clone #43; purified antibody 43) VH: QVALKESGPGILQPSQTLSLTCSFSGFSLSTFGMGVGWIRQSSGKGLEWLANIWWDDDKYYNPALKSRLTISKDASKNQAFLKIANVDTADTATYYCARIGNYGSNYWYFDVWGTGTTVTVSS VL: QIVLTQSPAIMSASPGERVTMTCSANSRISYMYWYQQKPGSSPRLLIYDTSNLASGVPVRFSGSGSGTSYSLTISRMEAEDAATYNCQQWSSYPLTFGAGTKLELK ≥ 30%

Name the reported loss of binding vs wild type value associated with the binder antibody 48 (antibody, V domains shown, mouse IgG, kappa light chain; also called clone #48; purified antibody 48) VH: QVQLQQSGTELVRPGTSVKVSCKASGYAFTNYLIEWVKQRPGQGLEWIGVINPGSGFTKYNEKFKGKATLTADKSSSTVYMHLSSLTSEDSAVYFCARGLYRAMDYWGQGTSVTVSS VL: DIQMTQSPASQSASLGESVTITCLASQTIATWLAWYQQKPGKSPQLLIYGATTLADGVPSRFSGGGSGTKFSFKISSLQAEDFVSYYCQQLYSTPYTFGGGTKLEIK ≥ 30%

These entries and their values trace back to patent US20240287172A1.
